# SYSTEM: HDAC6 (Homo sapiens, UniProt Q9UBN7)
# Sequence (Q9UBN7 1-1215): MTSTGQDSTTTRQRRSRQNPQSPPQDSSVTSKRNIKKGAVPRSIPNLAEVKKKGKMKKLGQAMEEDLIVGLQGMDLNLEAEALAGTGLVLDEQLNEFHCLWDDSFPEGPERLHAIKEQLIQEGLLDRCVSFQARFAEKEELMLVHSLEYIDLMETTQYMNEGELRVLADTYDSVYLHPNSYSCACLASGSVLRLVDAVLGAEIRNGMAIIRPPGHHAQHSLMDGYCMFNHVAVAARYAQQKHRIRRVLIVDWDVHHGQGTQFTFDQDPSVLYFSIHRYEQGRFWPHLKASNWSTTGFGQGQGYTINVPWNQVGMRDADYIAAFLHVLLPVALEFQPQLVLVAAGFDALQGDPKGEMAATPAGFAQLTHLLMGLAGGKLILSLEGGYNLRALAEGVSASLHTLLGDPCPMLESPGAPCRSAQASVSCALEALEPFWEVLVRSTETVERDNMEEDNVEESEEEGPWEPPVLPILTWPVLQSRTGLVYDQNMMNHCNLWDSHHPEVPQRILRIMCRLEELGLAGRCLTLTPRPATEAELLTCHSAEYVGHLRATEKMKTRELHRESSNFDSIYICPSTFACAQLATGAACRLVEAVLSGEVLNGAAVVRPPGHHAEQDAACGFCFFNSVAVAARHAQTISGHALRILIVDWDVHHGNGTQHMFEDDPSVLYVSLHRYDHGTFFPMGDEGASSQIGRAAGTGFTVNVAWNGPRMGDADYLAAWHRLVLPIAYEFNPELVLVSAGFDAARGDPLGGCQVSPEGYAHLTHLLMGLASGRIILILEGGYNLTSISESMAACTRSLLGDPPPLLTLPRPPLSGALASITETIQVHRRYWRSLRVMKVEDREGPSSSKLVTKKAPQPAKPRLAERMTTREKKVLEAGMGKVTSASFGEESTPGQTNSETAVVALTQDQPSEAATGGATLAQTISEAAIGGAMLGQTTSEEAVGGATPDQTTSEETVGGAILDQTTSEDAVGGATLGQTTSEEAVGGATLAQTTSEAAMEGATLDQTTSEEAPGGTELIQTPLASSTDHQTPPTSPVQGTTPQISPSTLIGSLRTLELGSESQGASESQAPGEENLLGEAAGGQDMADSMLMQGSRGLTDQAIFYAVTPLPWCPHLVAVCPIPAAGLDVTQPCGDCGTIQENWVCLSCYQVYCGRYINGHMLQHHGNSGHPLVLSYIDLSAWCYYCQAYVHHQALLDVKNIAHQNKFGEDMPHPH
ATTRIBUTE MEASURED: pIC50
Numbers only, as −log10 of the molar value.

In plain terms, O=C(NO)c1cnc(NC2(c3cccc(F)c3)CCCCC2)nc1 [Compound 101] has a documented pIC50 of 8.12
